Reference source for all entries: paper PMC9482650

target_or_system: T1, FRMPD1, Q5SYB0
T1 sequence (Q5SYB0 52-145, limits assumed, looked up): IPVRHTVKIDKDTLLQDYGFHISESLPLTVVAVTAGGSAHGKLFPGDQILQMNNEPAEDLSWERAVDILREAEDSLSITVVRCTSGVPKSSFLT
assay_procedure: holdup assay
Set-up: key: below the threshold = too weak to quantify, mostly under pKd 3.1 to 4
reported_conditions: plain residues with an end cap or a label only (N-terminal biotin on a linker: ado-ado)
attribute_measured: pKd

Worked set:
binder	result
DFLSTFHIRI [CIB2, O75838]	below the threshold
RDPPAEWTRV [PTPN18, Q99952]	below the threshold
ARGPPRESEV [FAM110D, Q8TAY7]	below the threshold
EDGESWEYQI [TRPV6, Q9H1D0]	below the threshold
DDASLPVSDV [PLEKHA1, Q9HB21]	below the threshold
IDESKKEWLI [CNTNAP2, Q9UHC6]	below the threshold
PSVGSKKTVL [REELD1, A0A1B0GV85]	below the threshold

// next item, pKd requested
Request: Would you kindly share the measured pKd for LPAVCYDIDI [PTTG2, Q9NZH5] ?
Response: below the threshold
